- System: muMax20 (Max(13-93) K31hArg/K57hArg, M65Nle)
- test-description: PBM 8-mer E-score (E-score (rank enrichment, -0.5 to 0.5)); higher = stronger preferential binding
Whole data set: some 33,000 sequences, median “E-score (rank enrichment, -0.5 to 0.5)” near -0.0068, cut for the highest 2% near 0.24. What follows is part of a selection rich in the highest values, with near analogues and random picks from the rest.
Give met when the value for PBM 8-mer E-score is at least 0.2. Give not met when it is less.

QUERY: Say whether AAGCTGAT shows PBM 8-mer E-score of 0.2 or more.
RESULT: met

QUERY: Say whether ATGTATTC shows PBM 8-mer E-score of 0.2 or more.
RESULT: not met

QUERY: Say whether GCCGGTCA shows PBM 8-mer E-score of 0.2 or more.
RESULT: not met

* * *

- System: muMax20 (Max(13-93) K31hArg/K57hArg, M65Nle)
- test-description: PBM 8-mer E-score (E-score (rank enrichment, -0.5 to 0.5)); higher = stronger preferential binding
In all, about 33,000 sequences were measured (“E-score (rank enrichment, -0.5 to 0.5)”: median about -0.0068, highest 2% from about 0.24 on). The full list was thinned out, with the highest values kept by preference.
Measured PBM 8-mer E-score, listed per entry for reference.

Worked set:
- AACGTGCC: -0.0196
- AATGGTAC: 0.0908
- CACGTGCG: 0.462
- AGCATTTC: 0.141
- CGGCCACC: -0.305

QUERY: Which PBM 8-mer E-score is reported for this sequence? TGCAAGCA
RESULT: -0.0637

QUERY: Which PBM 8-mer E-score is reported for this sequence? AAACTCGG
RESULT: -0.00029

QUERY: Which PBM 8-mer E-score is reported for this sequence? AGTTAGTA
RESULT: 0.27

QUERY: Which PBM 8-mer E-score is reported for this sequence? AATATGGC
RESULT: 0.24

QUERY: Which PBM 8-mer E-score is reported for this sequence? CATGCATA
RESULT: 0.19

QUERY: Which PBM 8-mer E-score is reported for this sequence? ACACGTCA
RESULT: 0.246

QUERY: Which PBM 8-mer E-score is reported for this sequence? AATAGGTG
RESULT: 0.119

QUERY: Which PBM 8-mer E-score is reported for this sequence? CTCTATGA
RESULT: -0.000995

QUERY: Which PBM 8-mer E-score is reported for this sequence? CGTGCACG
RESULT: 0.283

* * *

- System: muMax20 (Max(13-93) K31hArg/K57hArg, M65Nle)
- test-description: PBM 8-mer E-score (E-score (rank enrichment, -0.5 to 0.5)); higher = stronger preferential binding
In all, about 33,000 sequences were measured (“E-score (rank enrichment, -0.5 to 0.5)”: median about -0.0068, highest 2% from about 0.24 on). The sample as a whole holds a higher share of the highest values than the screen did.
measured-metric: PBM 8-mer E-score
Give the figure only, with no unit attached.

Worked set:
* AAACGCGA | 0.0862
* AATTTATC | 0.205

Next up:
QUERY: Write down the reported PBM 8-mer E-score of CACGTGGC , test system: muMax20 (Max(13-93) K31hArg/K57hArg, M65Nle).
RESULT: 0.442

Taken from the supplement of paper PMC12636033.
